EXPERIMENTAL_DETAILS: chemical genetic growth profiling, strain panel (AID 1159580);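 further: tested at 20 µM; growth read once vehicle control cultures reached saturation at 30 °C; 1 = growth at the plate median or of vehicle wells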
CONDITION_DESCRIPTION: S. cerevisiae deletion strains, growth OD, locus YGL248W, strain PDE1
The whole screen tested about 5,500 compounds, of which about 2,000 (36%) were called active. Inconclusive results (about 18%) are left out. No stated cut-off is given here; in the data, active means normalized growth mostly below about 0.91 (no sharp cut-off); inconclusive means no clear call, values can overlap the other calls; inactive means mostly above about 0.92. Some of the results follow.
Tick one outcome: active, inactive

These solved cases illustrate the format of a correct answer.
Nc1cc(-c2ccncc2)c[nH]c1=O = active
Cc1cccc(Nc2ccncc2S(=O)(=O)NC(=O)NC(C)C)c1 = inactive
COc1cc([C@@H]2c3cc4c(cc3[C@H](OC(C)=O)[C@H]3COC(=O)[C@@H]23)OCO4)cc(OC)c1OC = inactive
C[C@H](CCC(=O)O)[C@H]1CCC2C3C(CC[C@@]21C)[C@@]1(C)CC[C@@H](O)C[C@H]1C[C@H]3O (stereo partly specified) = inactive
COC(=O)CCC(C)C1CCC2C3CC[C@@H]4C[C@H](O)CC[C@]4(C)C3C[C@H](O)[C@]12C (stereo partly specified) = inactive

Below: the item to evaluate.
Inquiry: Recorded test call requested for Nc1ccncc1
Reply text: inactive

----------
EXPERIMENTAL_DETAILS: chemical genetic growth profiling, strain panel (AID 1159580);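 further: tested at 20 µM; growth read once vehicle control cultures reached saturation at 30 °C; 1 = growth at the plate median or of vehicle wells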
CONDITION_DESCRIPTION: S. cerevisiae deletion strains, growth OD, locus YJR066W, strain TOR1 (second series)
The whole screen tested about 5,500 compounds, of which about 2,000 (36%) were called active. About 18% were inconclusive and are not listed. No stated cut-off is given here; in the data, active means normalized growth mostly below about 0.91 (no sharp cut-off); inconclusive means no clear call, values can overlap the other calls; inactive means mostly above about 0.92. The list shows a part of the results.
Tick one outcome: active, inactive

These solved cases illustrate the format of a correct answer.
N#Cc1ccc(NC(=O)Nc2cccc3ccccc23)cc1 = inactive
COc1cc(CC/C(C)=N/O)ccc1OCc1ccc(Cl)cc1Cl = inactive
O=C(Nc1ccc(F)c(Cl)c1)c1ccccc1O = inactive

Inquiry: Recorded test call requested for CC1(C)c2ccccc2N(CCC(N)=O)C12C=Cc1c(ccc3ccccc13)O2 (stereo unspecified)
Reply text: inactive

Inquiry: Recorded test call requested for O=C(Nc1cccc2ccccc12)c1ccccc1O
Reply text: inactive

----------
EXPERIMENTAL_DETAILS: chemical genetic growth profiling, strain panel (AID 1159580);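 further: tested at 20 µM; growth read once vehicle control cultures reached saturation at 30 °C; 1 = growth at the plate median or of vehicle wells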
CONDITION_DESCRIPTION: S. cerevisiae deletion strains, growth OD, locus YCL069W, strain vba3, stronger effect = lower value
Out of some 5,500 compounds screened, about 2,000 (36%) were called active. About 18% were inconclusive and are not listed. The list shows a part of the results.
Overview of recorded normalized growth for various molecules
// keep it numeric: no unit symbol after the value

Examples with their reported normalized growth follow.
C[C@H](CCC(=O)O)[C@H]1CCC2C3C(CC[C@@]21C)[C@@]1(C)CC[C@@H](O)C[C@H]1C[C@@H]3O (stereo not given in full) = 0.991
CC(=O)Nc1ccccc1 = 0.962
Cc1cc(C)cc(OCC2CNC(=O)O2)c1 (stereo not given) = 0.975
C=C1C(C2(C)C=CC(=O)C(C)(C)C2CC(=O)OC)CC[C@@]2(C)[C@H](c3ccoc3)OC(=O)C3OC132 (stereo not given in full) = 0.986
O=c1cc(-c2ccccc2)oc2cccc(O)c12 = 0.959

Inquiry: What normalized growth value was documented for this molecule, CC(CCC(=O)O)[C@H]1CCC2C3CC[C@@H]4C[C@H](O)CC[C@]4(C)C3CC[C@@]21C (stereo not given in full) ?
Reply text: 1

Inquiry: What normalized growth value was documented for this molecule, Cc1cc(=O)oc2c(O)c(O)ccc12 ?
Reply text: 0.976

Inquiry: What normalized growth value was documented for this molecule, CC(=O)O[C@H]1C[C@@H](OC(C)=O)C(C)(C)C2CC(=O)[C@]3(C)C(CC[C@@]4(C)[C@H](c5ccoc5)OC(=O)[C@H]5O[C@]543)[C@]21C (stereo not given in full) ?
Reply text: 0.99

Inquiry: What normalized growth value was documented for this molecule, CN(C)CCOC(=O)C(c1ccccc1)C1(O)CCCC1 (stereo not given) ?
Reply text: 0.991

Inquiry: What normalized growth value was documented for this molecule, CCCCCC1C(=O)CCC1CC(=O)OC (stereo not given) ?
Reply text: 0.986

Inquiry: What normalized growth value was documented for this molecule, COC(=O)CCC(C)[C@H]1CCC2C3C(C[C@H](O)[C@@]21C)[C@@]1(C)CC[C@@H](O)C[C@H]1C[C@H]3O (stereo not given in full) ?
Reply text: 1

Inquiry: What normalized growth value was documented for this molecule, O=C(O)CCCOc1ccc(Cl)cc1Cl ?
Reply text: 0.944

Inquiry: What normalized growth value was documented for this molecule, C[C@@H]1O[C@@H](O[C@H]2C[C@@H](O)[C@]3(CO)C4C(CC[C@]3(O)C2)[C@@]2(O)CC[C@H](C3=CC(=O)OC3)[C@@]2(C)C[C@H]4O)[C@H](O)[C@H](O)[C@H]1O (stereo not given in full) ?
Reply text: 1.03

Inquiry: What normalized growth value was documented for this molecule, COC(=O)CCCOc1ccc(Cl)cc1Cl ?
Reply text: 0.962

Inquiry: What normalized growth value was documented for this molecule, C=C1C2CC[C@@]3(C)[C@H](c4ccoc4)OC(=O)C[C@]13O[C@H]1CC(O)C(C)(C)C(CC(=O)OC)[C@@]21C (stereo not given in full) ?
Reply text: 0.979

Inquiry: What normalized growth value was documented for this molecule, CCCCCC1C(=O)CCC1CC(=O)O (stereo not given) ?
Reply text: 0.995

Inquiry: What normalized growth value was documented for this molecule, O=c1cc(-c2ccccc2)oc2c(O)c(O)ccc12 ?
Reply text: 0.985

Inquiry: What normalized growth value was documented for this molecule, C=C1C2CC[C@@]3(C)[C@H](c4ccoc4)OC(=O)C[C@]13O[C@H]1CC(=O)C(C)(C)C(CC(=O)OC)[C@@]21C (stereo not given in full) ?
Reply text: 0.964

Inquiry: What normalized growth value was documented for this molecule, N#C/C(=C\c1cccc(O)c1)C(=O)O ?
Reply text: 1

Inquiry: What normalized growth value was documented for this molecule, CCCC(C(=O)OCCN(CC)CC)(c1ccccc1)c1ccccc1 ?
Reply text: 1.01
